Value source: ChEMBL document CHEMBL3988442

- Organism: Homo sapiens
- experiment: To identify inhibition of the IFN signalling (Jak-Stat) pathway via expression of an eGFP reporter gene under the control of an IFN-stimulated response element (ISRE) containing MxA promoter.
- Type: functional
- Set-up: scale not given: direction of the effect not stated beside the values
- experimental_setup: 30 µM
Provide the recorded Percent Effect for the entries that follow.
Numbers only, in %.

CN(C)CC1(O)CCN(S(=O)(=O)c2ccc(F)cc2)C1 (stereo unspecified); 10.1
COc1cccc2cc(CNC(=O)N3CCCC(O)C3)oc12 (stereo unspecified); 6.63
Cc1nc(CCNC(=O)NC2CCN(c3ncccn3)CC2)cs1; 22.2
O=C(N1CCOCC1)N1CCc2ncnc(NC3CC3)c2CC1; 19.9
CN(C)c1cc(C(=O)NCCc2nnc(-c3ccco3)[nH]2)ccn1; 0.0854

Pending compound:
For "CCOc1ncccc1NC(=O)c1cc2c(s1)CCC2" , what is its reported Percent Effect?
9.51
